Tested on: PC-3
assay: NCI tumour cell line growth inhibition, 48 h
The source made the active and inactive calls. Rule as the data show it: active = GI50 up to about 1.1 µM and inactive = higher.
readout kind: GI50

| compound | GI50 |
| --- | --- |
| CCc1c(Cl)c(C)cc(O)c1Cl | 19.6 µM (inactive) |
| CC1C(=O)O[B-]2(c3ccccc3)Oc3ccccc3C=[N+]12 (stereo not given) | > 100 µM (inactive) |

Form field: reported GI50 of "Cc1ccc2c(c1)[n+]([O-])c(N)n[n+]2[O-]"
> 100 µM (inactive)

And what about the compound CCCCCCCCCCCCCCCCCCNc1ccn(C2OC(COP(=O)(O)OCCCCCCCCCCCCCCCC)C(O)C2O)c(=O)n1 (stereo not given) ?
> 100 µM (inactive)

And what about the compound "O=C(NCCCCCCNCc1cccc2ccccc12)Nc1cccc2ccccc12" ?
> 100 µM (inactive)

And what about the compound "Cc1cc(C)nc(NC(=S)Nc2ccc(Cl)cc2)c1" ?
> 100 µM (inactive)

And what about the compound CCCCCCCCC/C=C1/CC(CO)(COC(=O)CC(C(C)C)C(C)C)OC1=O (stereo not given) ?
6.75 µM (inactive)

====

System: EKVX
assay: NCI tumour cell line growth inhibition, 48 h
Calls of active or inactive are those of the source. Cut-off read from the data, not from the text of the source: active = GI50 up to about 1.1 µM and inactive = higher.
readout kind: GI50

Before answering, review these 5 worked examples.
| compound | assay target | GI50 |
| --- | --- | --- |
| COc1ccc2c(-c3csc(-c4c[nH]c5ccc(Br)cc45)n3)c[nH]c2c1 | EKVX | 32.1 µM (inactive) |
| Cc1ccc(S(=O)(=O)C2=Cc3ccccc3C2(O)c2ccccc2)cc1 (stereo not given) | EKVX | 24.9 µM (inactive) |
| NC(=O)/C=C/NC(=O)/C=N\O | EKVX | > 100 µM (inactive) |
| N#Cc1c(O)c(/C=N/c2ccc(Cl)cc2)c(=O)n2c1[nH]c1ccccc12 | EKVX | > 100 µM (inactive) |
| C[n+]1c2ccccc2c(NC(CCC(N)=O)C(=O)O)c2ccccc21 (stereo not given) | EKVX | > 100 µM (inactive) |

# value lookup — system EKVX, readout GI50, item "CN(C)CCNc1c2ccccc2c2c3c(cccc13)C(=O)N(CCN(C)C)C2=O"
0.332 µM (active)

And what about the compound "CCCCCCCCCCCC[C@@H](O)[C@H]1CC[C@H]([C@H](O)CCCC[C@H](O)CCCCC[C@@H](O)CC2=C[C@H](C)OC2=O)O1" ?
0.562 µM (active)

And what about the compound Cc1ccc(S(=O)(=O)NCC2CCCCC2=O)cc1 (stereo not given) ?
> 100 µM (inactive)

====

System: MCF7
assay: NCI tumour cell line growth inhibition, 48 h
Active and inactive are the calls of the source. Rule as the data show it: active = GI50 up to about 1.1 µM and inactive = higher.
readout kind: GI50

Before answering, review these 5 worked examples.
| compound | assay target | GI50 |
| --- | --- | --- |
| O=C(O)c1ccc(NNC(=O)c2cccc3c(=O)c4ccccc4[nH]c23)cc1 | MCF7 | > 100 µM (inactive) |
| CC(=O)c1cnc2oc3ccc(O)cc3c2c1-c1ccccc1 | MCF7 | 48.2 µM (inactive) |
| C(#CP(c1ccccc1)c1ccccc1)P(C#CP(c1ccccc1)c1ccccc1)c1ccccc1 | MCF7 | > 100 µM (inactive) |
| COc1ccc(-c2cc(-c3ccc(Nc4ccnc5cc(C(F)(F)F)ccc45)cc3)nc(N)c2C#N)c2ccccc12 | MCF7 | 97.9 µM (inactive) |
| COC(=O)C1=C(C)NC(C)=C(C(=O)OC)C1c1cccc(/[N+]([O-])=C/c2ccccc2)c1 | MCF7 | 17.8 µM (inactive) |

// moving on: another record for GI50
Form field: reported GI50 of "c1cc2c(c(NC3=NCCO3)c1)CCC2"
> 100 µM (inactive)
